# assayProtocol: Pharmacokinetics of 29 QLQX components in rat plasma by HPLC-MS/MS after intragastric QLQX
# assayContext: Sprague-Dawley, rat, plasma, po, […]
quantityMeasured: Tmax (min)
One number for each entry, in min.

Illustrative cases are given below, each with its answer.
- molecule: "O=C(O)c1ccc(O)c(O)c1"
  Tmax (min): 40.2
- molecule: "O=C(/C=C/c1ccc(O)c2c1[C@H](C(=O)O)[C@@H](c1ccc(O)c(O)c1)O2)O[C@H](Cc1ccc(O)c(O)c1)C(=O)O"
  Tmax (min): 40.2
- molecule: "CC(C)=CCC[C@](C)(O[C@@H]1O[C@H](CO)[C@@H](O)[C@H](O)[C@H]1O)[C@H]1CC[C@]2(C)[C@@H]1[C@H](O)C[C@@H]1[C@@]3(C)CC[C@H](O[C@@H]4O[C@H](CO)[C@@H](O)[C@H](O)[C@H]4O[C@@H]4O[C@H](CO)[C@@H](O)[C@H](O)[C@H]4O)C(C)(C)[C@@H]3CC[C@]12C [Ginsenoside Rd]"
  Tmax (min): 40.2

Now consider the entry below.
Enquiry: Look up and report measured Tmax for this entry: O=c1c(O)c(-c2ccc(O)c(O)c2)oc2cc(O)cc(O)c12
Return: 40.2
